Molecular target: T1, human CD3ε/δ-Fc fusion protein (soluble recombinant CD3ε/δ complex) (human, UniProt P04234 22-105)
T1 construct: also called huCD3ε/δ; huCD3; not shown: hinge, CH2, CH3 of human IgG with tag
T1 sequence (chain, as listed by the source mutant, chain 1 of 2): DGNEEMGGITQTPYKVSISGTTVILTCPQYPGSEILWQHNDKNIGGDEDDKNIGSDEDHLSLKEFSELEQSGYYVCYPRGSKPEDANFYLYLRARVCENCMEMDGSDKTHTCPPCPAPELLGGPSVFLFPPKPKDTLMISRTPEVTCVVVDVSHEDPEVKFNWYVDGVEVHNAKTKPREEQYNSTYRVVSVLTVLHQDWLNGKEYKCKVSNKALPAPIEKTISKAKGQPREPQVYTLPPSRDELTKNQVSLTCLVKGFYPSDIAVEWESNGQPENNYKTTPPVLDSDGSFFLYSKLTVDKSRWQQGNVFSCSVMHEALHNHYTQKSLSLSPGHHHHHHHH
T1 sequence (P04234 22-105, stated change not applied, chain 2 of 2): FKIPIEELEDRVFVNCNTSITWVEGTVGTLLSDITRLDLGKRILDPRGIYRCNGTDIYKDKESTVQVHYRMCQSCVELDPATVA
Experiment: SPR Biacore, Fab
Procedure: Binding affinities of anti-CD3 binding Fabs or CODV-Fabs were measured by surface plasmon resonance (SPR) using a Biacore3000 instrument (GE Healthcare). Assay buffer was HBS-EP (BR-1001-88, GE Healthcare). Capture of CD3ε/δ-Fc fusion proteins was achieved using the human antibody capture kit (GE Healthcare). […] Binding kinetics with the anti-CD3 Fabs or CODV-Fabs was measured at 30 μl/min for 240 sec. and 600 sec. for association and dissociation phase, respectively. […]
Entries and their pKd values follow.
// scale note: pKd = -log10(conc_M); give the bare number

Record excerpt, results attached:
>>> testvalue("humanized 4B4 Fab 4B4_10 (VL1_CM2, VH6_BM2) (Fab, V domains shown) VH: QVQLVESGGRVVQPGRSLRLTCAASGFTFSNAWMHWVRQAPGKQLEWVAQIKARSNNYATYYAESVKGRFTISRDDSKSTIYLQMNSLRAEDTAVYYCRGTYYASKPFDYWGQGTTVTVSS VL: DVVMTQSPLSLSVTLGQPVSISCRSSQSLVHDNGNTYLSWSLQRPGQSPRVLIYKVSNRFSGVPDRFSGSGSGTDFTLKISRVEAEDVGVYYCGQGTQYPFTFGSGTKLEIK")
8.04
>>> testvalue("humanized 4B4 Fab 4B4_7 (VL1b, VH1A) (Fab, V domains shown, expressed as Fab-fragment) VH: QVQLVETGGGLVKPGQSLKLTCATSGFTFSNAWMHWVRQSPEKGLEWVAQIKARSNNYATYYAESVKGRFTISRDDSKSTIYLQMNSLTPEDTAIYYCRGTYYASKPFDYWGQGVMVTVSS VL: DVVMTQTPVSLSVSVGGRVSISCRSSQSLVHDNANTYLSWSLQKPGKSPKVLIYKVSNRFSGVSSRFTGSGSGTDFTLKISSVQPDDLGVYYCGQGTQYPFTFGSGTKLEIK")
8.09
>>> testvalue("humanized 4B4 Fab 4B4_5 (VL2C, VH6D) (Fab, V domains shown, expressed as Fab-fragment) VH: QVQLVESGGGVVQPGRSLRLSCATSGFTFSNAWMHWVRQAPGKQLEWVAQIKARSNNYATYYADSVKGRFTISRDDSKSTIYLQMNSLRAEDTAVYYCRGTYYASKPFDYWGQGTLVTVSS VL: DIVMTQTPLSLSVTPGQPASISCKSSQSLVHDNGNTYLSWSLQKPGQSPQVLIYKVSNRFSGVPDRFSGSGSGTDFTLKISRVEAEDVGVYYCGQGTQYPFTFGSGTKLEIK")
7.74
>>> testvalue("humanized 4B4 Fab 4B4_17 (VL2A, VH2B) (Fab, V domains shown, expressed as Fab-fragment) VH: EVQLVETGGGLVQPGGSLKLTCATSGFTFSNAWMHWVRQSPEKGLEWVAQIKARSNNYATYYADSVKGRFTISRDDSKSTIYLQMNSLRAEDTAIYYCRGTYYASKPFDYWGQGVMVTVSS VL: DVVMTQTPVSLSVSPGGPVSISCRSSQSLVHDNGNTYLSWSLQKPGQSPQVLIYKVSNRFSGVSDRFTGSGSGTDFTLKISRVEPDDLGVYYCGQGTQYPFTFGSGTKLEIK")
8.05

Now look at this entry.
## Task Note pKd for the binder shown: humanized 4B4 Fab 4B4_9 (VL2B, VH2A) (Fab, V domains shown, expressed as Fab-fragment) VH: EVQLVETGGGLVQPGGSLKLTCATSGFTFSNAWMHWVRQSPEKGLEWVAQIKARSNNYATYYAESVKGRFTISRDDSKSTIYLQMNSLRAEDTAIYYCRGTYYASKPFDYWGQGVMVTVSS VL: DVVMTQTPVSLSVSPGGPVSISCRSSQSLVHDNANTYLSWSLQKPGQSPQVLIYKVSNRFSGVSDRFTGSGSGTDFTLKISRVEPDDLGVYYCGQGTQYPFTFGSGTKLEIK
## Result 7.87
